This collection of values is drawn from PubChem BioAssay AID651548.

Target: Histone-lysine N-methyltransferase EZH2 (Homo sapiens)
Experiment: inhibition of PRC2 H3K27 methylation – biochemical, DELFIA time-resolved fluorescence, single point, primary screen (AID 651548);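 note: dimethyl H3K27 on biotinylated H3 21-44 peptide detected by antibody; plate controls were median neutral control wells for no effect and median positive control wells for full effect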
Details: DELFIA TRF, 1 h, at 12.5 µM, active compounds read high
The campaign covered roughly 57,000 compounds. About 200 (0.35%) were called active. Only a selection was taken, and actives are over-represented in it overall.
In this section, each of the molecules is paired with its reported inhibition.

Reference set, count: 3
CCNC(=O)C[C@@H]1CC[C@@H](NC(=O)NC2CCCCC2)[C@H](CO)O1 : -1.26% (inactive)
O=C(C[C@H]1C=C[C@H](NC(=O)c2cnccn2)[C@@H](CO)O1)NCc1ccccc1F : 4.44% (inactive)
COc1cccc(C(=O)Nc2ccc3c(c2)OC[C@H](C)N(C(C)=O)C[C@@H](C)[C@@H](OC)CN(C)C3=O)c1 : 6.08% (inactive)

Q: Hi! What's the reported inhibition for `CN(C)C(=O)C[C@H]1C[C@H]2c3cc(NC(=O)Nc4ccc(C(F)(F)F)cc4)ccc3O[C@H]2[C@@H](CO)O1` on Histone-lysine N-methyltransferase EZH2 (Homo sapiens)?
Result: -22.5% (inactive)

---

Target: Histone-lysine N-methyltransferase EZH2 (Homo sapiens)
Test: inhibition of PRC2 H3K27 methylation – biochemical, DELFIA time-resolved fluorescence, single point, primary screen (AID 651548)
Details: DELFIA TRF, 1 h, at 12.5 µM, active compounds read high
Screen size: about 57,000 compounds; about 200 (0.35%) were called active. For the sample, actives were picked, then their nearest neighbours and some compounds at random.
Attribute: inhibition
Reply with just the number (in %).

C[C@@H]1CN([C@H](C)CO)S(=O)(=O)c2ccc(C#CC3(O)CCCC3)cc2O[C@@H]1CN(C)C(=O)c1cccnc1 : 5.12
O=C(O)CCCc1ccccc1 : -7.51
O=C(Nc1ccccc1)N[C@@H]1CC[C@H](CCn2cc(C3(O)CCCC3)nn2)O[C@@H]1CO : -9.38
O=C(C[C@@H]1C=C[C@H](NC(=O)C2CCC2)[C@@H](CO)O1)NCC1CC1 : 10.5
COc1cccc(NC(=O)Nc2ccc3c(c2)OC[C@@H](C)NC[C@@H](C)[C@H](OC)CN(C)C3=O)c1 : -3.01

Q: Looking for the measured inhibition of `COc1ccc(CN2C[C@@H](C)[C@H](OC)CN(C)C(=O)c3cc(NC(C)=O)ccc3OC[C@@H]2C)cc1` , can you help?
Result: -2.6

Q: Which measured inhibition value corresponds to `C[C@H](O)C#Cc1ccc2c(c1)O[C@H](CN(C)C(=O)C1CC1)[C@@H](C)CN([C@H](C)CO)S2(=O)=O` ?
Result: 7.79

Q: Recorded inhibition of CC1=CCC(C(C)(C)O[C@@H]2O[C@H](COC(=O)c3cc(O)c(O)c(O)c3)[C@@H](O)[C@H](O)[C@H]2O)CC1 (some centres not stated) , please.
Result: 91.8

Q: GET /values?readout=inhibition&item= `CO[C@H]1CN(C)C(=O)c2ccc(NC(=O)c3cnccn3)cc2OC[C@@H](C)N(C(C)=O)C[C@H]1C`
Result: 7.05

Q: Would you mind telling me what inhibition value was observed for `CCC(=O)N1C[C@H](C)[C@H](OC)CN(C)C(=O)c2ccc(NC(=O)c3cnccn3)cc2OC[C@@H]1C` ?
Result: 10.3

Q: # query: inhibition of entry `CCCC(=O)Nc1ccc2c(c1)C(=O)N(C)C[C@@H](OC)[C@@H](C)CN(C(=O)CC)[C@H](C)CO2`
Result: 8.4

Q: Quick one: inhibition for `O=C(N[C@H]1CC[C@@H](CCNC(=O)C2CCC2)O[C@@H]1CO)c1ccncc1` ?
Result: -3.82

---

Quick reference: inhibition of the listed items.
Target: Histone-lysine N-methyltransferase EZH2 (Homo sapiens)
Assay: inhibition of PRC2 H3K27 methylation – biochemical, DELFIA time-resolved fluorescence, single point, primary screen (AID 651548)
Conditions: DELFIA TRF, 1 h, at 12.5 µM, active compounds read high
Out of some 57,000 compounds screened, about 200 (0.35%) were called active. This excerpt belongs to a sample that is enriched for actives.
Reply numerically in %, unit not repeated.

C[C@H]1CN([C@@H](C)CO)C(=O)c2cc(Br)cnc2O[C@@H]1CN(C)S(=O)(=O)c1ccc(F)cc1 : 30.8

Q: Endpoint output: inhibition of `C[C@@H]1CN([C@@H](C)CO)C(=O)c2cc(-c3cccnc3)cnc2O[C@H]1CN(C)Cc1ccc(-c2ccccc2)cc1` . Value?
Result: 7.86

Q: # inhibition lookup, item `O=C(Nc1ccccc1F)N[C@@H]1C=C[C@H](CC(=O)N2CCCCC2)O[C@@H]1CO`
Result: -6.07

Q: Given the entry `CCCN(C)C[C@H]1OCCCC[C@H](C)Oc2ccc(NS(=O)(=O)c3ccc(C)cc3)cc2C(=O)N([C@@H](C)CO)C[C@H]1C` , report its measured inhibition.
Result: -43.7

---

Molecular target: Histone-lysine N-methyltransferase EZH2 (Homo sapiens) (UniProt Q15910)
Sequence (Q15910 whole entry, looked up): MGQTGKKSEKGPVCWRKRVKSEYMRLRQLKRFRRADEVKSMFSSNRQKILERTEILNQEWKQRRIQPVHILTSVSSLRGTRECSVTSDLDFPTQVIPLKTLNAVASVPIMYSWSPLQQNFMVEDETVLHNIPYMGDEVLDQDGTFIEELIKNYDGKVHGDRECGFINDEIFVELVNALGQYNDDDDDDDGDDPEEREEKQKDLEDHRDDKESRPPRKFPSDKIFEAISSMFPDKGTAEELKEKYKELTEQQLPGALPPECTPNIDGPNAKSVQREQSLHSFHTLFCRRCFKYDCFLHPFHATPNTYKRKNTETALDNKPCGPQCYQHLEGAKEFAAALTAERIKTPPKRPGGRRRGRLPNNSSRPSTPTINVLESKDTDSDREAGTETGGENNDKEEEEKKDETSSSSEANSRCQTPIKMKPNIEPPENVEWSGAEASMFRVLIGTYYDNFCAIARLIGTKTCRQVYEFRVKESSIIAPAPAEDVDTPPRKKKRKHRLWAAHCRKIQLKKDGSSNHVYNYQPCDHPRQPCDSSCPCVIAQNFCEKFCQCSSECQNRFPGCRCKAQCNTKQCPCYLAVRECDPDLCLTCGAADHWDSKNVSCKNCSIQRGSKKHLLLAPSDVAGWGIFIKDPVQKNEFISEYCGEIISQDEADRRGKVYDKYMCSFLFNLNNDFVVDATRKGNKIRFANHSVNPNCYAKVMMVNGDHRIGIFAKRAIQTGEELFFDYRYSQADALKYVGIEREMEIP
Test: inhibition of PRC2 H3K27 methylation – biochemical, DELFIA time-resolved fluorescence, single point, primary screen (AID 651548);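 note: dimethyl H3K27 on biotinylated H3 21-44 peptide detected by antibody; plate controls were median neutral control wells for no effect and median positive control wells for full effect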
Details: DELFIA TRF, 1 h, at 12.5 µM, active compounds read high
The whole screen tested about 57,000 compounds, of which about 200 (0.35%) were called active. The full list was thinned out, with actives kept by preference.
inhibition overview
Give the number; % is assumed, so skip it.

Please review the following examples before continuing.
CCC(=O)Nc1ccc2c(c1)OC[C@H](C)N(CC1CCCCC1)C[C@@H](C)[C@H](OC)CN(C)C2=O : -10.4
CNC[C@H]1OCCCC[C@H](C)Oc2ccc(NS(C)(=O)=O)cc2C(=O)N([C@@H](C)CO)C[C@H]1C : 5.37

Q: Give its inhibition value. Item: `Cc1ccc(S(=O)(=O)N[C@@H]2CC[C@H](CCn3cc(-c4cccc(F)c4)nn3)O[C@@H]2CO)cc1`
Result: -11.1

Q: Param item = `O=C(C[C@@H]1C=C[C@@H](NS(=O)(=O)c2ccc(F)cc2)[C@@H](CO)O1)NCCN1CCCCC1` ; retrieve measured inhibition.
Result: 7.22

---

Target: Histone-lysine N-methyltransferase EZH2 (Homo sapiens)
Experiment: inhibition of PRC2 H3K27 methylation – biochemical, DELFIA time-resolved fluorescence, single point, primary screen (AID 651548);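 note: dimethyl H3K27 on biotinylated H3 21-44 peptide detected by antibody; plate controls were median neutral control wells for no effect and median positive control wells for full effect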
Conditions: DELFIA TRF, 1 h, at 12.5 µM, active compounds read high
The whole screen tested about 57,000 compounds, of which about 200 (0.35%) were called active. This is one part of a sample in which actives are shown more often than they occur.
measured_attribute: inhibition (%)
# output: bare number, implied unit %

Guide cases for inhibition, answers given:
O=C(C[C@H]1C[C@@H]2c3cc(NS(=O)(=O)c4ccc(F)cc4)ccc3O[C@@H]2[C@H](CO)O1)NCc1cccc(F)c1 : -5.18
O=C(Nc1ccccc1)Nc1ccc2c(c1)[C@@H]1C[C@@H](CC(=O)N3CCCCC3)O[C@H](CO)[C@@H]1O2 : -1.6
O=C(C[C@@H]1C=C[C@@H](NC(=O)C2CC2)[C@H](CO)O1)NCCCN1CCOCC1 : -1.42
CCCNC(=O)N1C[C@@H](C)[C@@H](OC)CN(C)C(=O)c2ccc(NC(=O)CCC)cc2OC[C@H]1C : -3.61

Q: Param item = `CO[C@@H]1CN(C)C(=O)c2cc(NC(=O)NC3CCCCC3)ccc2OC[C@@H](C)N(C(C)=O)C[C@H]1C` ; retrieve measured inhibition.
Result: 0.307

Q: Which inhibition is listed for `CCCNC(=O)Nc1ccc2c(c1)OC[C@@H](C)N(CCC)C[C@H](C)[C@@H](OC)CN(C)C2=O` ?
Result: 0.898

Q: Could you share which inhibition value was measured for `CCCNC(=O)Nc1ccc2c(c1)C(=O)N(C)C[C@@H](OC)[C@H](C)CN(C(=O)C1CCCCC1)[C@H](C)CO2` ?
Result: 4.24

Q: // query inhibition value for entry `COc1cccc(S(=O)(=O)N[C@H]2C=C[C@H](CC(=O)NCc3ccc(Cl)cc3)O[C@@H]2CO)c1`
Result: 7.24

---

Target: Histone-lysine N-methyltransferase EZH2 (Homo sapiens) (UniProt Q15910)
Test: inhibition of PRC2 H3K27 methylation – biochemical, DELFIA time-resolved fluorescence, single point, primary screen (AID 651548);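 note: dimethyl H3K27 on biotinylated H3 21-44 peptide detected by antibody; plate controls were median neutral control wells for no effect and median positive control wells for full effect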
Settings: DELFIA TRF, 1 h, at 12.5 µM, active compounds read high
About 200 (0.35%) of roughly 57,000 compounds were called active. The list comes from a sample in which actives are over-represented; it also holds close analogues and randomly drawn compounds.
measured_attribute: inhibition (%)
Dear colleague, please return just the value in %, with no unit written.

CO[C@@H]1CN(C)C(=O)c2cc(NC(=O)c3ccccc3F)ccc2OC[C@H](C)N(C(C)=O)C[C@@H]1C : -5.74
COCC(=O)N(C)C[C@@H]1Oc2cc(C#CCC(C)C)ccc2S(=O)(=O)N([C@@H](C)CO)C[C@@H]1C : 7.89
O=C(C[C@@H]1C[C@@H]2c3cc(NS(=O)(=O)c4ccc(F)cc4)ccc3O[C@@H]2[C@H](CO)O1)NCc1cc(F)ccc1F : 17

Q: Look up inhibition for this molecule: `C/C=C/c1ccc2c(c1)O[C@H](CN(C)C(=O)C1CCCCC1)[C@@H](C)CN([C@@H](C)CO)S2(=O)=O`
Result: 13.7
